Reference for the values: ChEMBL document CHEMBL3272182

- target_of_assay: Oxytocin receptor (Rattus norvegicus) (UniProt P70536)
- Sequence (P70536 whole entry): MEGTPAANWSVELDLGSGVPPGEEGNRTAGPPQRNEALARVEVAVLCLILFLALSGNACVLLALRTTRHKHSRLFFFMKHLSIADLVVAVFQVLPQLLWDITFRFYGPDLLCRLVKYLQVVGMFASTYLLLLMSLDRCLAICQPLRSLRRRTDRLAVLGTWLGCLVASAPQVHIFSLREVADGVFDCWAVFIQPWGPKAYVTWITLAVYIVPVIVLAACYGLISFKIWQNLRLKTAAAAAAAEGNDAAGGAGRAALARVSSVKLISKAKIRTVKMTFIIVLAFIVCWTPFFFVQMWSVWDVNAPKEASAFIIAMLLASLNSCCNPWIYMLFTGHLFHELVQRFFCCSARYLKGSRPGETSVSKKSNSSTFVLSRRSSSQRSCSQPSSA
- experimental_protocol: Activity at oxytocin receptor in rat uterus in presence of Mg2+
- Format: tissue-based
test_readout: Activity

1. N=C(N)NCCC[C@@H](NC(=O)[C@@H]1CCCN1C(=O)[C@@H]1CSSCCC(=O)N[C@@H](Cc2ccc(O)cc2)C(=O)N[C@@H](Cc2ccccc2)C(=O)N[C@@H](CCC(N)=O)C(=O)N[C@@H](CC(N)=O)C(=O)N1)C(=O)NCC(N)=O (stereo in doubt; 4)    66 U/mg
2. N=C(N)NCCC[C@H](NC(=O)[C@@H]1CCCN1C(=O)[C@@H]1CSSC[C@H](N)C(=O)N[C@@H](Cc2ccc(O)cc2)C(=O)N[C@@H](Cc2ccccc2)C(=O)N[C@@H](CCC(N)=O)C(=O)N[C@@H](CC(N)=O)C(=O)N1)C(=O)NCC(N)=O    25.5 U/mg
3. N=C(N)NCCC[C@@H](NC(=O)[C@@H]1CCCN1C(=O)[C@@H]1CSSCCC(=O)N[C@@H](Cc2ccc(O)cc2)C(=O)N[C@@H](Cc2ccccc2)C(=O)N[C@@H](CCC(N)=O)C(=O)N[C@@H](CC(N)=O)C(=O)N1)C(=O)NCC(N)=O (stereo in doubt; 6)    2.9 U/mg
4. NC(=O)CC[C@@H]1NC(=O)[C@H](Cc2ccccc2)NC(=O)[C@H](Cc2ccc(O)cc2)NC(=O)[C@@H](N)CSSC[C@@H](C(=O)N2CCC[C@H]2C(=O)N[C@H](CCCN=C(N)N)C(=O)NCC(N)=O)NC(=O)[C@H](CC(N)=O)NC1=O    1.02 U/mg
